- tgt: full-length human dCTPase protein (Homo sapiens, UniProt Q9H773)
- Sequence (Q9H773 whole entry): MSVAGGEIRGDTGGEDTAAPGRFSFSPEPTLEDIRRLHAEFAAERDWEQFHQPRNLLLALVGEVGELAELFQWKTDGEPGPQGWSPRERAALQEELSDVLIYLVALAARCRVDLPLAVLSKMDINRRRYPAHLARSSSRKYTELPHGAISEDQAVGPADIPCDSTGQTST
- assay: HTS-adapted Malachite Green assay of dCTPase inhibition
- Format: biochemical
property.measured: inhibition of dCTPase (in words)

Cc1nc2c([N+](=O)[O-])c(F)c(F)cc2n1Cc1ccc(B(O)O)cc1 [Compound 39] = submicromolar activity
Cc1nc2cc(Cl)c(Cl)cc2n1Cc1ccc(B(O)O)cc1 [Compound 38] = submicromolar activity
COc1ccc(Cn2cnc3cc(C)c(C)cc32)cc1 [Compound 8] = no inhibiton of dCTPase
COc1ccc(Cn2cnc3ccccc32)cc1 [Compound 7, 1-(4-Methoxybenzyl)-1H-benzo[d]imidazole] = no inhibiton of dCTPase

---

- assay: human liver microsome stability
- condition.label: human liver microsomes
property.measured: E HLM (extraction ratio)
Answer as a number with no unit attached.

Cc1nc2c([N+](=O)[O-])c(Cl)c(Cl)cc2n1Cc1ccc(-n2cccn2)cc1 = 0.61
O=[N+]([O-])c1c(Cl)c(Cl)cc2c1nc(C1CC1)n2Cc1ccc(B(O)O)cc1 = 0.14
COc1ccc(Cn2c(C)nc3c([N+](=O)[O-])c(Cl)c(Cl)cc32)cc1 = 0.59

Check the records and state E HLM (extraction ratio) for Cc1n[nH]c(C)c1CCn1c(C)nc2c([N+](=O)[O-])c(Cl)c(Cl)cc21 0.83

Output E HLM (extraction ratio) of Cc1nc2c([N+](=O)[O-])c(Cl)c(Cl)cc2n1Cc1ccc(B(O)O)cc1 0.38

---

- assay: mouse liver microsome stability
- condition.label: mouse liver microsomes
Each record is given T if its reported E MLM (extraction ratio) is strictly below 0.8. Records at or above 0.8 are given F.

Cc1nc2c([N+](=O)[O-])c(Cl)c(Cl)cc2n1Cc1ccc(B2OC(=O)CN(C)CC(=O)O2)cc1 [Compound 30] = T
O=[N+]([O-])c1c(Cl)c(Cl)cc2c1nc(C1CC1)n2Cc1ccc(B(O)O)cc1 [Compound 36] = F
Cc1nc2c([N+](=O)[O-])c(Cl)c(Cl)cc2n1Cc1ccc(-n2cccn2)cc1 [Compound 27] = T
Cc1n[nH]c(C)c1CCn1c(C)nc2c([N+](=O)[O-])c(Cl)c(Cl)cc21 [Compound 25] = F
Cc1nc2c([N+](=O)[O-])c(Cl)c(Cl)cc2n1Cc1ccc(B(O)O)cc1 [Compound 18] = T

Could you now look at the following molecule, please?
Determine whether this molecule shows E MLM (extraction ratio) lower than 0.8 (ties excluded): COc1ccc(Cn2c(C)nc3c([N+](=O)[O-])c(Cl)c(Cl)cc32)cc1 [Compound 14] F

---

- assay: plasma protein binding
- Format: in vitro ADME
property.measured: fraction unbound
// return a plain number; no unit text

Fill in reported fraction unbound for this entry: Cc1nc2c([N+](=O)[O-])c(Cl)c(Cl)cc2n1Cc1ccc(B2OC(=O)CN(C)CC(=O)O2)cc1 0.008
